- TARGET OR SYSTEM: human β3 adrenergic receptor (Homo sapiens, UniProt P13945)
- Construct: expressed in transfected cells; host or cells: Chinese hamster ovary (CHO) cells, stably transfected
- Sequence (P13945 whole entry): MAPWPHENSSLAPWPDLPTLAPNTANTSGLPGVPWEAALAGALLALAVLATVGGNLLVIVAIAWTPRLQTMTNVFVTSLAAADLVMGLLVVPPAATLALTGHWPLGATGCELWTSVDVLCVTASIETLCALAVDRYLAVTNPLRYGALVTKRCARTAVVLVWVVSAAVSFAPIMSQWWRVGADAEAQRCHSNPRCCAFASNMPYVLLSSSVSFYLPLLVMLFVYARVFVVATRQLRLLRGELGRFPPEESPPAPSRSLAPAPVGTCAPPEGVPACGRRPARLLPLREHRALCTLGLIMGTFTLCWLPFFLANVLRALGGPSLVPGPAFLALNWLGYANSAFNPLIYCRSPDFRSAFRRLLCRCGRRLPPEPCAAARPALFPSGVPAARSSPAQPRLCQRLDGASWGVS
- ASSAY PROCEDURE: Functional assay: cAMP production (LANCE TR-FRET) in CHO cells stably transfected with cloned β3 adrenergic receptor
- Assay type: cell-based
- EXPERIMENTAL CONDITIONS: Table 5; read-out: Human β3 Functional
- Experimental: Chinese hamster ovary (CHO) cells, stably transfected with the cloned β-adrenergic receptor (β1, β2 or β3) are harvested after 3 days of subculturing. Harvesting of cells is done with Enzyme-free Dissociation Media (Specialty Media). Cells are then counted and resuspended in assay buffer (Hank's Balanced salt solution supplemented with 5 mM HEPES, 0.1% BSA) containing a phosphodiesterase inhibitor (IBMX, 0.6 mM). […]
QUANTITY MEASURED: EC50

Worked set:
[
  {
    "COMPOUND": "CC(C(=O)Nc1ccc(C[C@@H]2CC[C@H]([C@H](O)c3ccccc3)N2)cc1)n1cncn1 (single isomer, unassigned) [Example 177]",
    "RESULT VALUE": "1 to 10 nM"
  },
  {
    "COMPOUND": "Nc1nc(C(CCF)C(=O)Nc2ccc(CC3CCC(C(O)c4ccccc4)N3)cc2)cs1 (stereo not drawn) [Example 222]",
    "RESULT VALUE": "< 1 nM"
  },
  {
    "COMPOUND": "O=C(Nc1ccc(C[C@@H]2CC[C@H]([C@H](O)c3ccccc3)N2)cc1)C1CCCc2ccnn21 (single isomer, unassigned) [Example 156]",
    "RESULT VALUE": "1 to 10 nM"
  }
]

Indicate the recorded EC50 value for this compound: CC(C(=O)Nc1ccc(C[C@@H]2CC[C@H]([C@H](O)c3ccccc3)N2)cc1)c1ccccn1 (single isomer, unassigned) [Example 205]
1 to 10 nM

Give EC50 for the following compound: O=C(O)c1nc2c(s1)CCC2C(=O)Nc1ccc(C[C@@H]2CC[C@H]([C@H](O)c3ccccc3)N2)cc1 (single isomer, unassigned) [Example 142]
101 to 1000 nM

Entry O=C(Nc1ccc(C[C@@H]2CC[C@H]([C@H](O)c3ccccc3)N2)cc1)C1CCCn2ccnc21 (single isomer, unassigned) [Example 154] needs its EC50 filled in; supply it.
1000 to 3000 nM

For the compound C[C@@H](C(=O)Nc1ccc(C[C@@H]2CC[C@H]([C@H](O)c3ccccc3)N2)cc1)c1csc(N)n1 [Example 104] , report EC50.
< 1 nM

---

- TARGET OR SYSTEM: human β3 adrenergic receptor (Homo sapiens)
- Construct: expressed in transfected cells; host or cells: Chinese hamster ovary (CHO) cells, stably transfected
- ASSAY PROCEDURE: Functional assay: cAMP production (LANCE TR-FRET) in CHO cells stably transfected with cloned β3 adrenergic receptor
- Format: cell-based
- EXPERIMENTAL CONDITIONS: Table 12; read-out: Human β3 Functional
pEC50: −log10 of the molar value.
Reported pEC50 values for a set of molecules

Look over these answered cases.
[
  {
    "MOLECULE": "O=C(Nc1ccc(C[C@@H]2CC[C@H]([C@H](O)c3ccc(F)c(F)c3)N2)cc1)[C@@H]1CCc2scnc21",
    "RESULT VALUE": "> 9.00"
  },
  {
    "MOLECULE": "Nc1nc2c(s1)CCC2C(=O)Nc1ccc(CC2CCC(C(O)c3ccc(F)c(F)c3)N2)cc1 (single isomer, unassigned) [Example 292]",
    "RESULT VALUE": "> 9.00"
  },
  {
    "MOLECULE": "Nc1nc2c(s1)CCC2C(=O)Nc1ccc(CC2CCC(C(O)c3ccc(F)c(F)c3)N2)cc1 (single isomer, unassigned) [Example 291]",
    "RESULT VALUE": "7.00 to 7.96"
  },
  {
    "MOLECULE": "Nc1nc2c(s1)CCC2C(=O)Nc1ccc(CC2CCC(C(O)c3ccc(F)c(F)c3)N2)cc1 (single isomer, unassigned) [Example 289]",
    "RESULT VALUE": "> 9.00"
  }
]

For Nc1nc2c(s1)CCC2C(=O)Nc1ccc(CC2CCC(C(O)c3ccc(F)c(F)c3)N2)cc1 (single isomer, unassigned) [Example 288] , write its pEC50.
7.00 to 7.96
